Below: a set of entries, each annotated with reported yeast fitness.
B1: tRNA (parent)
chain: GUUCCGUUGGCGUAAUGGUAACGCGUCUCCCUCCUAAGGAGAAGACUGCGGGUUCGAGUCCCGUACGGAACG

- Variants of: B1
- experimental protocol: yeast fitness relative to wild type (ratio to wild type); higher = fitter; tRNA-Arg(CCU), competitive growth, 37 C, YPD
This sample holds only a part of the variants without activity.
Enter the number alone.

Look over these answered cases.
> print(dat)
           mutant  endpoint.value
1       C24U A43G            1.02
2  G25A C46U A57G           0.676

Prompt line: Query (variant): U13C A57U ; field requested: yeast fitness
Response line: 0.753

Prompt line: So what does the record say about yeast fitness for G17C G39C ?
Response line: 0.59

Prompt line: # query: yeast fitness of entry U13A C24U G51C
Response line: 0.542

Prompt line: GET /values?readout=yeast fitness&item= A21U A36G A43U
Response line: 0.729

Prompt line: Return reported yeast fitness; argument: C4G C24A C46U
Response line: 0.608

Prompt line: Param item = C11U C62G G63A ; retrieve measured yeast fitness.
Response line: 0.529

Prompt line: Sample C11U A40G — what was its yeast fitness?
Response line: 0.866

Prompt line: State the recorded yeast fitness for this entry: U8G C29G
Response line: 0.55

Prompt line: Please give the measured yeast fitness for this variant: G9A C34U
Response line: 0.793

Prompt line: yeast fitness lookup needed for U2A A45U , thanks.
Response line: 0.863

Prompt line: Report yeast fitness for A37G A65U please.
Response line: 0.598

Prompt line: Which measured yeast fitness value corresponds to U19C C55A ?
Response line: 0.601

Prompt line: Suppose we examine the variant C49G U64G A65G A70U ; what yeast fitness value has been reported?
Response line: 0.683

Prompt line: Returns the measured yeast fitness for the input variant. Input: U19G A21U C46U C66U
Response line: 0.532

Prompt line: Request the reported yeast fitness associated with A15G U19G A69C
Response line: 0.721

Prompt line: I have this variant here, U8A A14C C24U U35A G63A , and I need its recorded yeast fitness.
Response line: 0.803

Prompt line: If you can, please state the reported yeast fitness value of C22G C46G .
Response line: 0.974

Prompt line: I have this variant here, C11U A15U C22U , and I need its recorded yeast fitness.
Response line: 0.507
